Molecular target: T1, 4H341-AA
T1 chain: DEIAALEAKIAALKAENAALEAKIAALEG
Assay: two-hybrid library CCmax;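 note: natural log of median RNA to DNA barcode read ratio; higher means stronger binding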
Conditions: mean of both orientations
reported property: interaction score
Output: the number by itself.

// below: answered binders
DKNAALEAEIAALEAENAALEAKIAALKG [4H3094-AA]	1.64
DKIAALKAKNAALKAKIAALKAEIAALEG [4H3049-AA]	0.355
DENAALEAEIAALEAEIAALKAKNAALKG [4H1040-AA]	-0.876
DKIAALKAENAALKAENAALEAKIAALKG [4H2774-AA]	0.103
DKIAALKAKIAALKAENAALEAKNAALEG [4H2903-AA]	-0.593
DKIAALKAENAALEAEIAALKAENAALEG [4H2699-AA]	-1.58

Given item DKIAALKAKNAALEAENAALEAEIAALEG [4H2961-AA] , the value recorded as its interaction score is -0.961
